Provenance of the data: ChEMBL document CHEMBL3217691

# ASSAY_INFO: in vitro
# STUDY_CONDITIONS: human, Caco-2
QUANTITY_NAME: Papp A→B (×10⁻⁶ cm/s)

compound_smiles=CS(=O)(=O)NCc1ccc(-c2ccc(N3CCOc4ncnc(N)c4C3=O)cc2)c(Cl)c1 quantity_name="Papp A→B" unit_abbreviation="×10⁻⁶ cm/s" test_value=11.3

1. CC(=O)N(C)Cc1ccc(-c2ccc(N3CCOc4ncnc(N)c4C3=O)cc2)c(Cl)c1
2. Nc1ncnc2c1C(=O)N(c1ccc(-c3ccc(CC(=O)N4CC[C@@H](O)C4)cc3Cl)cc1)CCO2
Given the two records 1 and 2 , choose the one whose Papp A→B value is lower. Reply briefly: the label of your chosen item.
2

---

# ASSAY_INFO: in vitro
# STUDY_CONDITIONS: rat, hepatocytes
QUANTITY_NAME: hepatocyte CLint (µL/min/1e6 cells)

Recorded results for 3 compounds are shown here.
compound_smiles=Nc1ncnc2c1C(=O)N(c1ccc(-c3ccc(Cn4cccnc4=O)cc3Cl)cc1)CCO2 test_value=18.4
compound_smiles=Nc1ncnc2c1C(=O)N(c1ccc(-c3ccccc3Cl)cc1)CCO2 test_value=11.1
compound_smiles=CC(=O)N(C)Cc1ccc(-c2ccc(N3CCOc4ncnc(N)c4C3=O)cc2)c(Cl)c1 test_value=11

a. Nc1ncnc2c1C(=O)N(c1ccc(-c3cccc(Cl)c3Cl)cc1)CCO2
b. N#Cc1ccc(-c2ccc(N3CCOc4ncnc(N)c4C3=O)cc2)c(Cl)c1
Between the two listed entries a and b , which has its hepatocyte CLint at the higher number? The response must carry the label of the picked entry.
a

---

# ASSAY_INFO: Half life in dog at 0.5 mg/kg, iv
# Type: ADME, organism-based, Canis lupus familiaris
# Design: dose 0.5 mg/kg, route intravenous
# STUDY_CONDITIONS: in vivo
QUANTITY_NAME: half-life (h)
Reply numerically in h, unit not repeated.

Form field: reported half-life of Nc1ncnc2c1C(=O)N(c1ccc(-c3ccccc3F)cc1)CCO2
1.2

---

# ASSAY_INFO: in vitro
# STUDY_CONDITIONS: rat, hepatocytes
QUANTITY_NAME: hepatocyte CLint (µL/min/1e6 cells)

compound_smiles=CN(Cc1ccc(-c2ccc(N3CCOc4ncnc(N)c4C3=O)cc2)c(Cl)c1)S(C)(=O)=O test_value=5.9

P. Nc1ncnc2c1C(=O)N(c1ccc(-c3ccc(CC(=O)O)cc3Cl)cc1)CCO2
Q. CN(Cc1ccc(-c2ccc(N3CCOc4ncnc(N)c4C3=O)cc2)c(Cl)c1)C(=O)CN
For the two items P and Q , which reports the higher hepatocyte CLint value? Reply with the label of the item you choose.
P
(P: 14 µL/min/1e6 cells, Q: 4.9 µL/min/1e6 cells)

---

# ASSAY_INFO: Oral bioavailability in dog at 0.5 mg/kg
# Type: ADME, organism-based, Canis lupus familiaris
# STUDY_CONDITIONS: in vivo
QUANTITY_NAME: bioavailability (%)
A number alone suffices; assume %.

Name the recorded bioavailability for Nc1ncnc2c1C(=O)N(c1ccc(-c3ccccc3F)cc1)CCO2 .
76
